These data points were gathered from patent US20240025919A1.

# tested-on: KRAS G12D (Homo sapiens (Human), UniProt P01116, G12D)
# Sequence (P01116-2 other isoform, or with tags, fused parts or gaps G12D): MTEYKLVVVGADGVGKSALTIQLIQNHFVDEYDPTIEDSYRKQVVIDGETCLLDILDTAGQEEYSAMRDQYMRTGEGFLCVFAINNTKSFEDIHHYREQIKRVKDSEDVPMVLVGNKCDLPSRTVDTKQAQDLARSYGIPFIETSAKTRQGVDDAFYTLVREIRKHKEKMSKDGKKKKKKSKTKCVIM
# assay-summary: KRAS G12D LoEnz Biochemical Assay, BODIPY-GDP Exchange TR-FRET (SOS1-mediated nucleotide exchange)
# test-conditions: read-out: KRas (G12D) GDP HTRF IC50
# Description: Example 500: KRAS G12D LoEnz Biochemical Assay, BODIPY-GDP Exchange TR-FRET. Biochemical compound potencies are assessed by evaluating inhibition of SOS1I-mediated nucleotide exchange in KRAS G121D. In this assay, the SOS1-promoted exchange of fluorescently-labeled GDP (BOPIDY-GDP) is monitored by time-resolved fluorescence resonance energy transfer (TR-FRET). […] After a 120-minute incubation, the fluorescence is measured with excitation at 337 nm and emission at 490 and 520 nm. […]
pIC50: −log10 of the molar value.
experimental-readout: pIC50

>>> recorded_measurement("Cc1cc(N)c(F)c(-c2nc3c4c(nc(OC[C@@H]5CC[C@H]6COCCN65)nc4c2F)N2C[C@H]4CC[C@H](N4)[C@H]2[C@H](C)O3)c1CC(F)F")
8.34
>>> recorded_measurement("Cc1c(F)c(N)cc(-c2nc3c4c(nc(OCC5(CN6CCOCC6)CC5)nc4c2F)N2C[C@H]4CC[C@H](N4)[C@H]2[C@H](C(F)(F)F)O3)c1C(F)(F)F")
9.66
>>> recorded_measurement("Cc1c(F)c(N)cc(-c2nc3c4c(nc(OC[C@@]56CCCN5C[C@H](F)C6)nc4c2F)N2C[C@H]4CC[C@H](N4)[C@@H]2[C@@H](C(F)(F)F)O3)c1C(F)(F)F")
8.96
>>> recorded_measurement("C#Cc1cccc2cc(O)cc(-c3nc4c5c(nc(OC[C@@]67CCCN6C[C@H](F)C7)nc5c3F)N3C[C@H]5CC[C@H](N5)[C@H]3[C@H](C(F)(F)F)O4)c12")
9.80
>>> recorded_measurement("Cc1c(F)c(N)cc(-c2nc3c4c(nc(OC[C@]56C[C@H](F)CN5C[C@H](F)C6)nc4c2F)N2C[C@H]4CC[C@H](N4)[C@H]2[C@H](C)O3)c1C(F)(F)F")
9.59

* * *

# tested-on: KRAS WT (Homo sapiens (Human))
# Sequence (P01116-2 other isoform, or with tags, fused parts or gaps): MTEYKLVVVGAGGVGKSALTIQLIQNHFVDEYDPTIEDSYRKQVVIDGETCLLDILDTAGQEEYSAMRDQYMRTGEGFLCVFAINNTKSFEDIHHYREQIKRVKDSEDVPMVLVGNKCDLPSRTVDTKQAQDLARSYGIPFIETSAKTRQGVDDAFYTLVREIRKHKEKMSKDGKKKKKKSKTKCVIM
# assay-summary: KRAS WT Biochemical Assay, BODIPY-GDP Exchange TR-FRET (Example 501; 3 nM KRAS WT, 3 nM SOS1, 60-minute incubation)
# test-conditions: KRas HTRF IC50 [uM]
experimental-readout: IC50 (µM)

>>> recorded_measurement("Cc1c(F)c(N)cc(-c2nc3c4c(nc(OCC5(CN6CC6(C)C)CC5)nc4c2F)N2C[C@H]4CC[C@H](N4)[C@H]2[C@H](C)O3)c1C(F)(F)F (stereo partly shown) [Compound 259]")
0.00971

* * *

# tested-on: KRAS G12D (Homo sapiens (Human), UniProt P01116, G12D)
# assay-summary: KRAS G12D LoEnz Biochemical Assay, BODIPY-GDP Exchange TR-FRET (SOS1-mediated nucleotide exchange)
# test-conditions: read-out: KRas (G12D) GDP HTRF IC50
molecules and their reported IC50
experimental-readout: IC50 (nM)

>>> recorded_measurement("Cc1c(F)c(N)cc(-c2nc3c4c(nc(OC[C@H]5[C@H](C#N)CCN5C)nc4c2F)N2C[C@H]4CC[C@H](N4)[C@H]2[C@H](C)O3)c1C(F)(F)F")
7.61
>>> recorded_measurement("Cc1c(F)c(N)cc(-c2nc3c4c(nc(OC[C@@]56CCCN5C[C@H](F)C6)nc4c2F)N2C[C@H]4CC[C@H](N4)[C@H]2[C@H](C)O3)c1C(F)(F)F")
0.074
>>> recorded_measurement("Cc1nc(N)cc(-c2nc3c4c(nc(OCC5(CN6C[C@H]7C[C@@H]6CO7)CC5)nc4c2F)N2C[C@H]4CC[C@H](N4)[C@H]2[C@H](C)O3)c1C(F)(F)F")
0.24
>>> recorded_measurement("Cc1c(F)c(N)cc(-c2nc3c4c(nc(OC[C@]5(CN6CC7(COC7)C6)CC5(F)F)nc4c2F)N2C[C@H]4CC[C@H](N4)[C@H]2[C@H](C)O3)c1C(F)(F)F (single isomer, unassigned) [165 b]")
0.1
>>> recorded_measurement("Cc1c(F)c(N)cc(-c2nc3c4c(nc(OCC5(CN6CCOC[C@H]6C)CC5)nc4c2F)N2C[C@H]4CC[C@H](N4)[C@H]2[C@H](C)O3)c1C(F)(F)F")
0.18
>>> recorded_measurement("C[C@@H]1Oc2nc(-c3cncc4ccccc34)c(F)c3nc(OC[C@@]45CCCN4CC4(CC4(F)F)C5)nc(c23)N2C[C@H]3CC[C@H](N3)[C@@H]12 (stereo partly drawn)")
19.4
>>> recorded_measurement("Cc1cc(-c2nc3c4c(nc(OC[C@@]56CCCN5C[C@H](F)C6)nc4c2F)N2C[C@H]4CC[C@H](N4)[C@H]2[C@H](C)O3)c(F)c(N)c1F")
175
>>> recorded_measurement("Cc1cc(N)c(Cl)c(-c2nc3c4c(nc(OC[C@@H]5CC[C@H]6COCCN65)nc4c2F)N2C[C@H]4CC[C@H](N4)[C@H]2[C@H](C)O3)c1C(F)(F)F")
0.86
>>> recorded_measurement("C[C@@H]1Oc2nc(-c3cccc4cccc(Cl)c34)c(F)c3nc(OC[C@@]45CCCN4CC4(CC4(F)F)C5)nc(c23)N2C[C@H]3CC[C@H](N3)[C@@H]12 (stereo partly drawn)")
0.72
>>> recorded_measurement("Cc1c(F)c(N)cc(-c2nc3c4c(nc(OC[C@@H]5CC[C@H]6COCCN65)nc4c2F)N2C[C@H]4CC[C@H](N4)[C@H]2[C@H](C)O3)c1CC(F)(F)F")
0.31
>>> recorded_measurement("COC1(C)CN(CC2(COc3nc4c5c(nc(-c6cc(N)nc(C)c6C(F)(F)F)c(F)c5n3)O[C@@H](C)[C@@H]3[C@@H]5CC[C@H](CN43)N5)CC2)C1")
0.29
>>> recorded_measurement("C#Cc1cccc2cc(O)cc(-c3nc4c5c(nc(OC[C@@]67CCCN6C[C@H](F)C7)nc5c3F)N3C[C@H]5CC[C@H](N5)[C@H]3CO4)c12")
0.058
>>> recorded_measurement("Cc1nc(N)cc(-c2nc3c4c(nc(OC[C@@]56CCCN5C[C@H](F)C6)nc4c2F)N2C[C@H]4CC[C@H](N4)[C@H]2[C@H](C(F)(F)F)O3)c1C(F)(F)F")
0.33
>>> recorded_measurement("Cc1c(Cl)c(N)cc(-c2nc3c4c(nc(OC[C@@]56CCCN5C[C@H](F)C6)nc4c2Cl)N2C[C@H]4CC[C@H](N4)[C@H]2[C@H](C)O3)c1C(F)(F)F")
0.13
>>> recorded_measurement("Cc1cc(N)c(F)c(-c2nc3c4c(nc(OC[C@@]56CCCN5C[C@H](F)C6)nc4c2F)N2C[C@H]4CC[C@H](N4)[C@H]2[C@H](C)O3)c1I")
0.325
>>> recorded_measurement("Cc1cc2[nH]ncc2c(-c2nc3c4c(nc(OC[C@@]56CCCN5C[C@H](F)C6)nc4c2F)N2C[C@H]4CC[C@H](N4)[C@H]2[C@H](C)O3)c1Cl")
2.8
>>> recorded_measurement("Cc1c(F)c(N)cc(-c2nc3c4c(nc(OCC5(CN6CCO[C@H](CF)C6)CC5)nc4c2F)N2C[C@H]4CC[C@H](N4)[C@H]2[C@H](C)O3)c1C(F)(F)F")
0.253
>>> recorded_measurement("Cc1nc(N)c(C)c(-c2nc3c4c(nc(OC[C@@]56CCCN5C[C@H](F)C6)nc4c2F)N2C[C@H]4CC[C@H](N4)[C@H]2[C@H](C)O3)c1C(F)(F)F")
0.62
>>> recorded_measurement("Cc1c(F)c(N)cc(-c2nc3c4c(nc(OC[C@@H]5CC[C@@H]6CC(F)(F)CCN65)nc4c2F)N2C[C@H]4CC[C@H](N4)[C@H]2[C@H](C)O3)c1C(F)(F)F (single isomer, unassigned) [119 (isomer 1)]")
4.38
>>> recorded_measurement("Cc1c(F)c(N)cc(-c2nc3c4c(nc(OC[C@@H]5CC[C@H]6COCCN65)nc4c2F)N2C[C@H]4CC[C@H](N4)[C@H]2[C@H](C)O3)c1Cl")
0.31
>>> recorded_measurement("Cc1c(Cl)c(N)cc(-c2nc3c4c(nc(OC[C@@]56CCCN5C[C@H](F)C6)nc4c2F)N2C[C@H]4CC[C@H](N4)[C@H]2[C@H](C)O3)c1C(F)(F)F (single isomer, unassigned)")
0.1
